Bridge positions count the residues as written; N and C are the ends. Peptide text beside a SMILES is read from it.
Below are IC50 values measured for α-chymotrypsin (Bos taurus, UniProt P00766).
Readout: IC50

• CC[C@H](C)[C@@H]1NC(=O)[C@H](CO)NC(=O)[C@H](Cc2ccc(O)cc2)NC(=O)[C@H]([C@@H](C)O)NC(=O)CNC(=O)[C@H](CO)NC(=O)CNC(=O)[C@@H](N)CSSC[C@@H](C(=O)N[C@@H](Cc2ccc(O)cc2)C(=O)NCC(=O)O)NC(=O)[C@H](CCC(N)=O)NC(=O)[C@@H]2CCCN2C(=O)[C@@H]2CCCN2C1=O [CH6] (H-CGSGTYSIPPQCYG-OH; disulfide 1-12; N-terminus and C-terminus assumed) = > 50 µM
• CC[C@H](C)[C@@H]1NC(=O)[C@H](Cc2ccc(O)cc2)NC(=O)[C@H](C)NC(=O)[C@H](CCSC)NC(=O)[C@H](C)NC(=O)[C@H](CCC(=O)O)NC(=O)CNC(=O)[C@@H]2CCCN2C(=O)[C@@H](N)CSSC[C@@H](C(=O)N[C@@H](Cc2ccccc2)C(=O)O)NC(=O)[C@H](CO)NC(=O)[C@H](CCCNC(=N)N)NC1=O [CH28] (H-CPGEAMAYIRSCF-OH; disulfide 1-12; N-terminus and C-terminus assumed) = > 50 µM
